- Tested on: OVCAR-8
- method summary: NCI tumour cell line growth inhibition, 48 h
The source made the active and inactive calls. Rule as the data show it: active = GI50 up to about 1.1 µM and inactive = higher.
result type: GI50

compound: CC(=O)O[C@H]1CC[C@@]2(C)C(=CC[C@H]3[C@@H]4C/C(=C\c5ccncc5)[C@H](OC(C)=O)[C@@]4(C)CC[C@@H]32)C1
result type: GI50
result: 11.8 µM (inactive)
--
compound: Brc1ccc2c(C3CN[C@@H](c4c[nH]c5cc(Br)ccc45)CN3)c[nH]c2c1 (some centres undefined)
result type: GI50
result: 4.23 µM (inactive)
--
compound: COc1ccc2c(c1)[n+]([O-])c(-c1c(Cl)cccc1Cl)c(N)[n+]2[O-]
result type: GI50
result: 61.7 µM (inactive)
--
compound: C[C@@H]1CC[C@@]2(OC1)O[C@H]1C[C@H]3[C@@H]4CC[C@H]5C[C@@H](OC6OC(CO)C(OC7OC(CO)C(O)C(OC8OCC(O)C(O)C8O)C7OC7OC(CO)C(O)C(O)C7O)C(O)C6O)[C@H](O)C[C@]5(C)[C@H]4CC[C@]3(C)[C@H]1[C@@H]2C (some centres undefined)
result type: GI50
result: 2.97 µM (inactive)
--
compound: CCc1cc2c(c3c1CCCC3)CC1(Cc3ccc(C(=O)OC)cc3C1)C2 (centres undefined)
result type: GI50
result: > 100 µM (inactive)
--
compound: COc1cc(C[C@@H](C)N)cc(OC)c1
result type: GI50
result: > 100 µM (inactive)
--
compound: COc1cccc(-c2nc(-c3cnccn3)n(COCCO)n2)c1
result type: GI50
result: > 100 µM (inactive)
--
compound: CC1(C)CCC2(C(=O)OC3OC(CO)C(O)C(O)C3O)CCC3(CO)C(=CCC4C5(C)CC(O)C(O)C(C)(C(=O)OC6OC(CO)C(O)C(O)C6O)C5CCC43C)C2C1 (centres undefined)
result type: GI50
result: > 100 µM (inactive)
--
compound: Cc1ccc(NC=O)c(-c2c(N)[nH]c(=S)[nH]c2=O)c1
result type: GI50
result: > 100 µM (inactive)
